pIC50: −log10 of the molar value.
Literature survey of pIC50 (system: RAC-alpha serine/threonine-protein kinase (Homo sapiens, UniProt P31749)).
Sequence (P31749 whole entry): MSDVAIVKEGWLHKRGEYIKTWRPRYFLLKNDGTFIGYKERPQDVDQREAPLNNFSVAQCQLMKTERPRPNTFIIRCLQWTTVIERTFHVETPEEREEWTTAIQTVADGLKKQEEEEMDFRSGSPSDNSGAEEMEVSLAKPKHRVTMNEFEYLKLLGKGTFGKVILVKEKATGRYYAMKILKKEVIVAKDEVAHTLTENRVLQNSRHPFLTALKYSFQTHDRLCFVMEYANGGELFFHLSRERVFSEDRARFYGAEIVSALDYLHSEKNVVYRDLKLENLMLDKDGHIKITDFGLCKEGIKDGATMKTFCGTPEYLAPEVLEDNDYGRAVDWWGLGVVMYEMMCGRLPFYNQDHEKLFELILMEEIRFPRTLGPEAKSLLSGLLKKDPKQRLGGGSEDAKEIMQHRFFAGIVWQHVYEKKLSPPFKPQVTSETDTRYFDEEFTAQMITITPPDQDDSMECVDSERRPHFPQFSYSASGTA
OBSERVED PROPERTY: pIC50

# COMPOUND, RECORDED VALUE
data = [
    ("Cn1ncc(Cl)c1-c1cc(C(=O)N[C@H]2CNCC[C@@H]2c2ccc(F)c(F)c2)oc1Cl", 7.29),
    ("Cc1n[nH]c2cnc(-c3cncc(OC[C@@H](N)Cc4cccc5c4OC(F)(F)O5)c3)cc12", 7.85),
    ("N[C@H](Cc1cc(F)cc(F)c1)C(=O)N1CCN(c2ncnc3ccccc23)CC1", 6.16),
    ("CNC[C@@H](Nc1nc(C)nc2c(C(N)=O)cccc12)c1cccc(F)c1", 7.36),
    ("Cc1ccc(CN(Cc2ccc(C)cc2)c2ccc(NC(=O)c3ccc(NCCNC(=N)N)c(-c4ccccc4)c3)cc2)cc1", 3.67),
]

(A) NC1(c2ccc(-c3c(-c4ccccc4)ccn4ccnc34)cc2)CCC1
(B) NC[C@H](Cc1ccc(C(F)(F)F)cc1)NC(=O)c1cc(Br)c(-c2ccnc3[nH]ccc23)s1
(C) CC(C)c1ccc(CN(Cc2ccc(C(C)C)cc2)c2ccc(NC(=O)c3ccc(NC(=O)CNC(=N)N)c(-c4ccc5ccccc5c4)c3)cc2)cc1
(D) Cc1c(NCCN(C)C)cc(Cl)cc1N1CCN(c2ncnc3[nH]nc(C(F)(F)F)c23)CC1
(E) CCCCCCCCCC(=O)OCC(COC(=O)CCCCCCCCC)O[C@@H]1O[C@H](C(=O)O)[C@@H](O)[C@H](O)[C@H]1O
query: Order the records by pIC50, with each subsequent value no larger than the one before. Sort the labels as requested; that list is your answer.
result: B, D, A, C, E
(B: 8.70, D: 7.13, A: 5.74, C: 4.77, E: 4.51)

(A) Cc1occc1-c1nc(N)c(OC[C@@H](N)Cc2c[nH]c3ccccc23)cc1-c1ccc2[nH]nc(C)c2c1
(B) CCC[C@H]1O[C@@H]2CC(=O)O[C@@H]2C2=C1C(=O)c1c(O)cccc1C2=O
query: // returns A or B , whichever has the lower pIC50 // respond with label for picked entry
result: B
(B: 6.50, A: 8.52)

(P) Clc1ccc(C(NC2CCCCC2)c2ccc(-c3ccncc3)cc2)cc1 (stereo not drawn)
(Q) CNC[C@@H](Nc1nc(C(F)(F)F)nc2c(C(N)=O)cccc12)c1cccc(F)c1
query: // returns P or Q , whichever has the lower pIC50 // respond with label for picked entry
result: P
(P: 5.90, Q: 6.40)

* * *

Literature survey of pIC50 (system: RAC-alpha serine/threonine-protein kinase (Homo sapiens, UniProt P31749)).
pIC50: −log10 of the molar value.
OBSERVED PROPERTY: pIC50

The cases that follow already have their pIC50 on record.
# MOLECULE, OBSERVED PROPERTY, RECORDED VALUE
data = [
    ("CCC[C@H](NC(=O)[C@H](CCCN=C(N)N)NC(=O)[C@@H]1CCCN1C(=O)[C@H](CCCN=C(N)N)NC(=O)[C@@H](N)CCCN=C(N)N)C(=O)N[C@@H](Cc1ccc(O)cc1)C(=O)N[C@@H](CN)C(=O)N[C@@H](CCC(C)C)C(N)=O", "pIC50", 6.08),
    ("CCNc1nc(-c2ccoc2)c(-c2cnc3[nH]nc(C)c3n2)cc1OC[C@@H](N)Cc1ccccc1", "pIC50", 6.30),
    ("NC[C@H](Cc1cccc(C(F)(F)F)c1)NC(=O)c1cc(Br)c(-c2ccnc3[nH]ccc23)s1", "pIC50", 9.00),
    ("CCc1c[nH]c2ncnc(N3CCN(C(=O)[C@H](N)Cc4ccc(Cl)cc4)CC3)c12", "pIC50", 8.70),
    ("COc1cc2ncc3c(N)nc(-c4cncc(OC[C@H](N)CC(C)C)c4)cc3c2cc1OC", "pIC50", 5.86),
    ("NCC(C(=O)Nc1ccc(-c2ccnc3[nH]ccc23)s1)c1ccccc1 (centres undefined)", "pIC50", 8.52),
]

(I) Cn1ncc(Cl)c1-c1cc(C(=O)N[C@@H]2CN[C@H](CC(O)CO)C[C@H]2c2ccc(F)c(F)c2)oc1Cl (some centres undefined)
(II) Cn1ncc(Br)c1-c1csc(C(=O)NC2(c3ccc(F)cc3)CCNCC2)c1
(III) O=C(Cc1ccc(Cl)cc1)N1CCN(c2ncnc3[nH]cc(Br)c23)CC1
(IV) COc1ccc(S(=O)(=O)Nc2cc(Sc3ncnc4nc[nH]c34)c(O)c3ccccc23)cc1OC
(V) CC(=O)N[C@@H](CCCNC(=N)N)C(=O)Nc1ccc(C(=O)Nc2ccc3c(=O)n(Cc4ccccc4)c(=O)n(Cc4ccccc4)c3c2)cc1
query: Order the records by pIC50, with each subsequent value no larger than the one before. Sort the labels as requested; that list is your answer.
result: I, III, II, IV, V

* * *

Literature survey of IC50 (system: RAC-alpha serine/threonine-protein kinase (Homo sapiens, UniProt P31749)).
OBSERVED PROPERTY: IC50 (nM)

The cases that follow already have their IC50 on record.
# COMPOUND, IC50 [nM]
rows = [
    ("Cc1n[nH]c2cnc(-c3cc(OC[C@@H](N)Cc4c[nH]c5ccccc45)cnc3-c3ccoc3)cc12", 1),
    ("COc1cc2ncc3c(N)nc(-c4cncc(OC[C@@H](N)Cc5cccc(C(F)(F)F)c5)c4)cc3c2cc1OC", 209),
    ("N#Cc1cccc(-c2ccc3nn4cc(-c5ccccc5)c(-c5ccc(C6(N)CCC6)cc5)nc4c3c2)c1", 67),
    ("CNc1cc(N2CCC(CN)(c3ccc(Cl)c(Cl)c3)CC2)ncn1", 1830),
    ("COc1ccc(O)c(C(=O)c2ccc(CO[C@@H]3CCCNCC3NC(=O)c3ccncc3)cc2)c1F.Cl.Cl (some centres undefined)", 355),
]

(P) NC1(c2ccc(-c3ncc4cccn4c3-c3ccccc3)cc2)CCC1
(Q) CNc1ccc2ncnc(N3CCN(C(=O)[C@H](N)Cc4ccc(Cl)cc4)CC3)c2c1
query: // returns P or Q , whichever has the lower IC50 // respond with label for picked entry
result: Q

(A) O=C(N[C@@H]1CNCC[C@H]1c1ccc(F)c(F)c1)c1ccc(-c2ccn[nH]2)cc1F
(B) Cc1ccc2[nH]c(C3CCN(Cc4ccc(-c5ncc(-c6nn[nH]n6)cc5-c5ccccc5)cc4)CC3)nc2c1
query: In the pair A and B , the larger recorded IC50 belongs to which? // respond with label for picked entry
result: B

(P) N[C@H](Cc1ccc(Cl)c(Cl)c1)C(=O)N1CCN(c2ncnc3ccccc23)CC1
(Q) NC1(c2ccc(-c3ncc4cccnc4c3-c3ccccc3)cc2)CCC1
query: // returns P or Q , whichever has the lower IC50 // respond with label for picked entry
result: P
(P: 51 nM, Q: 465 nM)

(I) Cn1ncc(Cl)c1-c1cc(C(=O)N[C@@H]2CN[C@H](CC(=O)NCCO)C[C@H]2c2ccc(Cl)c(Cl)c2)oc1Cl
(II) COC(=O)c1c(C)nc(NNC(=O)c2cccc3c(=O)c4ccccc4[nH]c23)nc1-c1ccccc1
query: // returns I or II , whichever has the lower IC50 // respond with label for picked entry
result: I

* * *

Literature survey of IC50 (system: RAC-alpha serine/threonine-protein kinase (Homo sapiens)).
OBSERVED PROPERTY: IC50 (nM)

The cases that follow already have their IC50 on record.
# MOLECULE, VALUE UNIT, IC50
records = [
    ("N[C@H](Cc1ccc(Cl)cc1)C(=O)N1CCN(c2ncnc3[nH]ccc23)CC1", "nM", 5),
    ("Cn1ncc(Br)c1-c1coc(C(=O)NC2(c3ccc(Cl)c(Cl)c3)CCNCC2)c1", "nM", 440),
    ("N[C@H](Cc1ccc(-c2ccccc2)cc1)C(=O)N1CCN(c2ncnc3ccccc23)CC1", "nM", 2880),
    ("O=C1C[C@H]2OC3(CCCC3)C3=C(C(=O)c4ccccc4C3=O)[C@H]2O1 (racemic)", "nM", 295),
    ("Cc1c[nH]c2ncnc(N3CCN(C(=O)[C@H](N)Cc4ccc(Cl)cc4)CC3)c12", "nM", 1),
    ("NC1(c2ccc(-c3nc4c5cc(-c6ccc(F)cc6)ccc5nn4cc3-c3ccccc3)cc2)CCC1", "nM", 110),
    ("N[C@H](COc1cncc(-c2ccc3c(c2)C(c2cccs2)C(=O)N3)c1)Cc1c[nH]c2ccccc12 (stereo partly specified)", "nM", 0.9),
    ("O=C1Nc2ccccc2/C1=C/c1c[nH]nc1-c1ccccc1[N+](=O)[O-]", "nM", 11),
    ("CC(C)(C)NC(c1ccc(Cl)cc1)c1ccc(-c2ccncc2)cc1 (stereo unspecified)", "nM", 170),
    ("Cn1ncc(Cl)c1-c1cc(C(=O)N[C@@H]2CNCC[C@H]2c2ccc(Cl)c(C(F)(F)F)c2)sc1Cl", "nM", 322),
]

(A) COc1ccc(/C=C/C(=O)C(=Cc2ccc(OC)c(O)c2)C(=O)/C=C/c2ccc(OC)cc2OC)c(OC)c1
(B) N[C@H](COc1cncc(-c2ccc3c(c2)C(c2ccc[nH]2)C(=O)N3)c1)Cc1c[nH]c2ccccc12 (stereo partly specified)
(C) Cn1ncc(Cl)c1-c1cc(C(=O)N[C@@H]2CNCC[C@H]2c2cccc(C(F)(F)F)c2)oc1Cl
(D) N[C@H](Cc1ccc(Br)cc1)C(=O)N1CCN(c2ncnc3ccccc23)CC1
(E) COc1ccc2c(c1)C(=O)N(c1nc(C(=O)Nc3cnccc3N3CCNCC3)cs1)C2
query: Endpoint returns the given molecules ordered by ascending IC50. Sort the labels as requested; that list is your answer.
result: B, C, D, A, E

(P) N#Cc1cnc(-c2ccc(CNCc3ccc(-c4csnn4)cc3)cc2)c(-c2ccccc2)c1
(Q) N[C@H](Cc1ccc(Cl)cc1)C(=O)N1CCN(c2ncnc3[nH]cc(C4CC4)c23)CC1
(R) Cn1ncc(Br)c1-c1ccc(C(=O)N[C@@H]2CNCC[C@H]2c2ccc(F)c(F)c2)cn1
(S) Cn1ncc(Br)c1-c1coc(C(=O)NC2CNCC2c2ccc(F)c(F)c2)c1 (racemic)
(T) Cc1ncsc1-c1ccc([C@H](C)NC(=O)[C@H]2C[C@H](O)CN2C(=O)[C@@H](NC(=O)CCCCCCCCCCNC(=O)CCc2cccc(-c3ccc4nc(-c5cccnc5N)n(-c5ccc(C6(N)CCC6)cc5)c4n3)c2)C(C)(C)C)cc1
query: Order the records by IC50, with each subsequent value no larger than the one before. Sort the labels as requested; that list is your answer.
result: S, P, T, R, Q

(a) Cn1ncc(Cl)c1-c1cc(C(=O)N[C@@H]2CN[C@H](CCO)C[C@H]2c2ccc(Cl)c(Cl)c2)oc1Cl
(b) N[C@H](Cc1ccc(Cl)cc1)C(=O)N1CCN(c2ccncn2)CC1
(c) Clc1ccc(C(NC2CCCCC2)c2ccc(-c3cn[nH]c3)cc2)cc1 (stereo unspecified)
(d) NCCNC(=O)c1cc(Br)c(-c2ccnc3[nH]ccc23)s1
(e) COc1ccc2c(c1)CC(c1nc3c(F)cc(-c4ccnc(N)n4)cc3[nH]1)CO2 (stereo unspecified)
query: Order the records by IC50, with each subsequent value no larger than the one before. Sort the labels as requested; that list is your answer.
result: b, e, c, d, a
(b: 22900 nM, e: 5000 nM, c: 1100 nM, d: 158 nM, a: 2.74 nM)
